Values were extracted from PubChem BioAssay (NCI).

Tested on: MDA-N
Assay: NCI tumour cell line growth inhibition, 48 h
Reported TGI values follow for various compounds
Observed Property: TGI (µM)

compound=O=C1C(c2ccccc2)=[N+]([O-])c2ccccc21 test_system=MDA-N inequality_operator== observed_result=12.8
compound=Cc1[nH]c(=O)nc(NCCNCCO)c1C(=O)Nc1cccc2cc3ccccc3cc12 test_system=MDA-N inequality_operator=> observed_result=100
compound="CC(C)C(CC(=O)OCC(CO)OC(=O)CC(C(C)C)C(C)C)C(C)C (stereo unspecified)" test_system=MDA-N inequality_operator== observed_result=30.1
compound="CC1C(NNc2ccccc2)Oc2cc3c(cc2C1c1ccccc1O)OCO3 (stereo unspecified)" test_system=MDA-N inequality_operator== observed_result=18.4
compound="C1=C2C3=[N+](CCCCC3)CC2Cc2ccsc21 (stereo unspecified)" test_system=MDA-N inequality_operator=> observed_result=100
compound="C/C=C(/C)C(=O)OC1CC(C)[C@H]2CC(=O)C(C)=C2CC1C(C)(C)OC(C)=O (stereo partly specified)" test_system=MDA-N inequality_operator=> observed_result=100
